assay: P. aeruginosa PAK growth delay with EDDHA – PAK strain, absorbance 405 nm, dry powder, dose response (AID 624107); conditions: P. aeruginosa PAK + EDDHA, pyoverdine absorbance 405 nm, 28 h; at 100 µM (top of the series)
The source made the active and inactive calls.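 Rule for the calls: active = fitted absorbance curve falls past 35% inhibition at a dose no higher than twice the top tested dose; inconclusive = flat fit at 30 to 70% inhibition, or poor fit; inactive = the rest.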
resultType: activity change, negative = inhibition

>>> result("N#CC(c1ccc(F)cc1)c1cccc(Cl)n1 (centres undefined)")
"-39.4% (inactive)"
>>> result("COCCOCCC(C#N)c1ccc(Cl)cc1 (centres undefined)")
"6.79% (inactive)"
>>> result("CCCCC(C#N)c1ccccn1 (centres undefined)")
"3.52% (inactive)"
>>> result("COCCC(C#N)c1ccc(Cl)cc1 (centres undefined)")
"-7.69% (inactive)"
>>> result("Clc1ccc(C(c2cccc(Cl)n2)c2nn[nH]n2)cc1 (centres undefined)")
"14.5% (inactive)"
>>> result("CCCCC(c1ccc(Cl)cc1)c1nn[nH]n1 (centres undefined)")
"-16.3% (inactive)"
>>> result("N#CC(c1ccc(C(F)(F)F)c(Cl)n1)c1ccccc1OC(F)(F)F (centres undefined)")
"-22.7% (inactive)"
>>> result("COCCNC(C#N)c1ccc(Cl)cc1 (centres undefined)")
"-17.9% (inactive)"
>>> result("CCCCC(C#N)c1ccc(Cl)cc1 (centres undefined)")
"-14% (inactive)"
